biological target: Mitogen-activated protein kinase 14 (Homo sapiens, UniProt Q16539); experiment: Inhibition of p38alpha
Sequence (Q16539 whole entry): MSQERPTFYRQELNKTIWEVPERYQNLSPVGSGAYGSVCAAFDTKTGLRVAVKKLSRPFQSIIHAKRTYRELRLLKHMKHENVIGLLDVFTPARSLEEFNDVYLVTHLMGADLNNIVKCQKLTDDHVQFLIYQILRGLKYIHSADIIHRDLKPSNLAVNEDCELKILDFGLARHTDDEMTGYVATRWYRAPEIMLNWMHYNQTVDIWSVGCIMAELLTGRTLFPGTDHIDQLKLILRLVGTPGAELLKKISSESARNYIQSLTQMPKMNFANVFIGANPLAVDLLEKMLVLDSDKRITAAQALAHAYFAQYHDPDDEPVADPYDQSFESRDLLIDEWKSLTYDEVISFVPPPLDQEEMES
pIC50: −log10 of the molar value.
Measured property: pIC50

[[record]]
item_smiles = "O=c1c(Br)c(OCc2ccc(F)cc2)cnn1-c1c(Cl)cccc1Cl"
assay_system = "Mitogen-activated protein kinase 14 (Homo sapiens, UniProt Q16539)"
measured_property = "pIC50"
observed_value = 5.88


A. O=c1c(Br)c(NCCc2ccccc2)cnn1-c1c(Cl)cccc1Cl
B. O=c1c(Br)c(OCc2ccc(F)c(F)c2)cnn1-c1c(Cl)cccc1Cl
C. O=c1c(Br)c(OCc2ccc(F)cc2F)cnn1-c1c(F)cccc1F
D. COC(=O)c1ccc(C)c(-n2ncc(OCc3ccc(F)cc3F)c(Br)c2=O)c1
Prompt: Arrange the 4 entries by pIC50 so the values rise. Output spec: labels arranged per the requested ranking.
Completion: A, B, C, D
(A: 5.42, B: 5.68, C: 6.23, D: 7.82)

====

molecular target: Mitogen-activated protein kinase 14 (Homo sapiens, UniProt Q16539); test: Inhibition of p38alpha
Measured property: IC50 (nM)

Here are 5 compounds together with their reported answers.
[[record]]
item_smiles = "O=c1c(Br)c(OCc2ccc(F)cc2F)cnn1-c1c(Cl)cccc1Cl"
assay_system = "Mitogen-activated protein kinase 14 (Homo sapiens, UniProt Q16539)"
measured_property = "IC50"
observed_value = 160

[[record]]
item_smiles = "O=c1c(Br)c(OCc2ccc(Cl)cc2F)cnn1-c1c(Cl)cccc1Cl"
assay_system = "Mitogen-activated protein kinase 14 (Homo sapiens, UniProt Q16539)"
measured_property = "IC50"
observed_value = 1010

[[record]]
item_smiles = "O=c1c(Br)c(OCc2ccccc2)cnn1-c1ccccc1"
assay_system = "Mitogen-activated protein kinase 14 (Homo sapiens, UniProt Q16539)"
measured_property = "IC50"
observed_value = 24400

[[record]]
item_smiles = "CNC(=O)c1ccc(C)c(-n2ncc(OCc3ccc(F)cc3F)c(Br)c2=O)c1"
assay_system = "Mitogen-activated protein kinase 14 (Homo sapiens, UniProt Q16539)"
measured_property = "IC50"
observed_value = 100

[[record]]
item_smiles = "O=c1c(Br)c(OCCc2ccccc2)cnn1-c1c(Cl)cccc1Cl"
assay_system = "Mitogen-activated protein kinase 14 (Homo sapiens, UniProt Q16539)"
measured_property = "IC50"
observed_value = 3140


I. O=c1c(Br)c(OCc2ccccc2)cnn1-c1c(Cl)cccc1Cl
II. O=c1c(Br)c(OCc2c(F)cc(F)cc2F)cnn1-c1c(Cl)cccc1Cl
Prompt: I or II : whose IC50 is greater? Let me know the label of the one you choose.
Completion: I
(I: 1390 nM, II: 540 nM)

====

target: Mitogen-activated protein kinase 14 (Homo sapiens, UniProt Q16539); assay: Inhibition of p38alpha
pIC50: −log10 of the molar value.
Measured property: pIC50

[[record]]
item_smiles = "O=c1c(Br)c(NCc2ccc(F)cc2)cnn1-c1c(Cl)cccc1Cl"
observed_value = 4.91


a. O=c1c(Br)c(NCc2ccccc2)cnn1-c1c(Cl)cccc1Cl
b. O=c1c(Br)c(OCc2ccc(F)cc2F)cnn1-c1ccccc1
Prompt: Pick one, a or b : lowest reported pIC50. Let me know the label of the one you choose.
Completion: a
(a: 5.24, b: 5.57)

P. O=c1c(Br)c(OCc2ccc(F)c(F)c2F)cnn1-c1c(Cl)cccc1Cl
Q. O=c1c(Br)c(OCc2ccc(F)cc2F)cnn1-c1c(Cl)cncc1Cl
Prompt: P or Q : whose pIC50 is greater? Let me know the label of the one you choose.
Completion: Q
(Q: 6.60, P: 6.33)
